# assay.summary: Viability of LnCaP cells by trypan blue exclusion after culture with paclitaxel
# Assay type: cell-based
# condition.description: human, LnCaP prostate cell line; LnCaP cells cultured with 40 nM paclitaxel for 72 hours
measured.endpoint: viability at 72 h, 40 nM

• CC(=O)O[C@H]1C(=O)[C@@]2(C)[C@H]([C@H](OC(=O)c3ccccc3)[C@]3(O)C[C@H](OC(=O)[C@H](O)[C@@H](NC(=O)c4ccccc4)c4ccccc4)C(C)=C1C3(C)C)[C@]1(OC(C)=O)CO[C@@H]1C[C@@H]2O = 33%

These data points were gathered from patent US8329422B2.
